# testTarget: human orexin-2 receptor (hOX2R) (Homo sapiens (Human), UniProt O43614)
# Sequence (O43614 whole entry): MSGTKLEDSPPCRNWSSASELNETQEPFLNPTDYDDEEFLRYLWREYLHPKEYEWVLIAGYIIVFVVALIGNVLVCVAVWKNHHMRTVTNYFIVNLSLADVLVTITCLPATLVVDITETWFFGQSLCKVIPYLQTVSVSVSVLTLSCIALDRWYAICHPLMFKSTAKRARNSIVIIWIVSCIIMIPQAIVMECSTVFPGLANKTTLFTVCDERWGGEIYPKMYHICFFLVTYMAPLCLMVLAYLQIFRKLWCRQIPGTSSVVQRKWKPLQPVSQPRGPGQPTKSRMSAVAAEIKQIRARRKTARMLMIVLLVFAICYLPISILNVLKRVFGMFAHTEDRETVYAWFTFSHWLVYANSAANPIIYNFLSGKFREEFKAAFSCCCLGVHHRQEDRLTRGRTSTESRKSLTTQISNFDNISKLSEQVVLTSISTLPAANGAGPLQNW
# testDescription: FLIPR Ca2+ Flux Assay, CHO cells expressing human orexin-2 receptor
# experimentalParameters: agonist Ala-6,12 human orexin-A 70 pM
measure: IC50 (µM)
All answers are understood in µM, so give the number only.

Q. Could you tell me which IC50 is on file for C[C@@H]1CC[C@@H](c2csc(C(C)(C)O)n2)CN1C(=O)c1ccsc1-c1ncccn1 [Example 31] ?
A. 0.09

Q. Could you tell me which IC50 is on file for C[C@@H]1CC[C@@H](c2csc(C(C)(C)O)n2)CN1C(=O)c1ccccc1C1(C#N)CC1 [Example 30] ?
A. 0.013

Q. Could you tell me which IC50 is on file for C[C@@H]1CC[C@@H](c2csc(C(C)(C)O)n2)CN1C(=O)c1ccccc1-n1ncnn1 [Example 29] ?
A. 0.015

Q. Could you tell me which IC50 is on file for C[C@@H]1CC[C@@H](c2csc(C(C)(C)O)n2)CN1C(=O)c1ccccc1-c1ncccn1 [Example 33] ?
A. 0.102

Q. Could you tell me which IC50 is on file for C[C@@H]1CC[C@@H](c2nc(C(C)(C)O)cs2)CN1C(=O)c1ccc(F)cc1-n1nccn1 [Example 13] ?
A. 0.019

Q. Could you tell me which IC50 is on file for COC(=O)c1ccccc1C(=O)N1C[C@H](c2nc(C(C)(C)O)cs2)CC[C@H]1C [Example 12] ?
A. 0.044

Q. Could you tell me which IC50 is on file for C[C@@H]1CC[C@@H](c2nc(C(C)(C)O)cs2)CN1C(=O)c1cscc1-c1ncccn1 [Example 16] ?
A. 0.025

Q. Could you tell me which IC50 is on file for C[C@@H]1CC[C@H](c2ncc(C(C)(C)O)s2)CN1C(=O)c1ccccc1-n1nccn1 [Example 3] ?
A. 2.65

Q. Could you tell me which IC50 is on file for C[C@@H]1CC[C@@H](c2csc(C(C)(C)O)n2)CN1C(=O)c1cscc1-c1ncccn1 [Example 32] ?
A. 0.13

Q. Could you tell me which IC50 is on file for C[C@@H]1CC[C@@H](c2nc(C(C)(C)O)cs2)CN1C(=O)c1ccsc1-n1nccn1 [Example 10] ?
A. 0.019

Q. Could you tell me which IC50 is on file for C[C@@H]1CC[C@@H](c2csc(C(C)(C)O)n2)CN1C(=O)c1ccc(F)cc1-n1nccn1 [Example 38] ?
A. 0.014

Q. Could you tell me which IC50 is on file for C[C@@H]1CC[C@@H](c2nc(C(C)(C)O)cs2)CN1C(=O)c1ccccc1-n1ncnn1 [Example 14] ?
A. 0.021

Q. Could you tell me which IC50 is on file for Cc1sc([C@@H]2CC[C@@H](C)N(C(=O)c3ccccc3-c3ncccn3)C2)nc1C(C)(C)O [Example 23] ?
A. 0.027

====

For each of the compounds below, state its pIC50.
# testTarget: human orexin-2 receptor (hOX2R) (Homo sapiens (Human))
# testDescription: FLIPR Ca2+ Flux Assay, CHO cells expressing human orexin-2 receptor
# experimentalParameters: agonist Ala-6,12 human orexin-A 70 pM
// pIC50: -log10(molar conc.)

Q. Could you tell me which pIC50 is on file for C[C@@H]1CC[C@@H](c2csc(C(C)(C)O)n2)CN1C(=O)c1ccccc1-n1nccn1 [Example 36] ?
A. 7.70

Q. Could you tell me which pIC50 is on file for C[C@@H]1CC[C@@H](c2ncc(C(C)(C)O)s2)CN1C(=O)c1ccccc1-n1nccn1 [Example 2] ?
A. 7.17

Q. Could you tell me which pIC50 is on file for Cc1sc([C@@H]2CC[C@@H](C)N(C(=O)c3cscc3-n3nccn3)C2)nc1C(C)(C)O [Example 21] ?
A. 7.52

Q. Could you tell me which pIC50 is on file for C[C@@H]1CC[C@@H](c2csc(C(C)(C)O)n2)CN1C(=O)c1cscc1-n1nccn1 [Example 35] ?
A. 7.85

Q. Could you tell me which pIC50 is on file for Cc1sc([C@@H]2CC[C@@H](C)N(C(=O)c3ccc(F)cc3-n3nccn3)C2)nc1C(C)(C)O [Example 22] ?
A. 7.70

Q. Could you tell me which pIC50 is on file for Cc1sc([C@@H]2CC[C@@H](C)N(C(=O)c3ccccc3C3(C#N)CC3)C2)nc1C(C)(C)O [Example 25] ?
A. 7.92

Q. Could you tell me which pIC50 is on file for C[C@@H]1CC[C@@H](c2nc(C(C)(C)O)cs2)CN1C(=O)c1ccccc1C1(C#N)CC1 [Example 11] ?
A. 7.82

Q. Could you tell me which pIC50 is on file for C[C@@H]1CC[C@@H](c2nc([C@H](O)C(F)(F)F)cs2)CN1C(=O)c1ccccc1-n1nccn1 [Example 6] ?
A. 6.78

Q. Could you tell me which pIC50 is on file for C[C@@H]1CC[C@@H](c2nc(C(C)(C)O)cs2)CN1C(=O)c1ccccc1-n1nccn1 [Example 5] ?
A. 7.77

Q. Could you tell me which pIC50 is on file for C[C@@H]1CC[C@@H](c2nc(C(C)(C)O)cs2)CN1C(=O)c1cscc1-n1nccn1 [Example 15] ?
A. 7.80

Q. Could you tell me which pIC50 is on file for C[C@@H]1CC[C@@H](c2nc(C(C)(C)O)cs2)CN1C(=O)c1ccsc1-c1ncccn1 [Example 18] ?
A. 6.94

Q. Could you tell me which pIC50 is on file for C[C@@H]1CC[C@@H](c2nc([C@H](O)C(F)F)cs2)CN1C(=O)c1ccccc1-n1nccn1 [Example 9] ?
A. 8.03

Q. Could you tell me which pIC50 is on file for C[C@@H]1CC[C@@H](c2nc(C(C)(C)O)cs2)CN1C(=O)c1ccccc1-c1ncccn1 [Example 17] ?
A. 7.54

Q. Could you tell me which pIC50 is on file for CCOC(=O)c1cnc([C@@H]2CC[C@@H](C)N(C(=O)c3ccccc3-n3nccn3)C2)s1 [Example 1] ?
A. 5.82

Q. Could you tell me which pIC50 is on file for Cc1sc([C@@H]2CC[C@@H](C)N(C(=O)c3ccccc3CS(C)(=O)=O)C2)nc1C(C)(C)O [Example 26] ?
A. 7.49

Q. Could you tell me which pIC50 is on file for C[C@@H]1CC[C@@H](c2cnc(C(C)(C)O)s2)CN1C(=O)c1ccccc1-n1nccn1 [Example 4] ?
A. 7.30
